assay: MTT cell viability assay, HFF cells; assay type: cell-based; details: human, HFF cells (non-cancer human foreskin fibroblasts)
reported_metric: CC50 at 48 h (µg/mL)
Answers are plain numbers, in µg/mL.

The value of CC50 at 48 h measured for the compound COc1cccc2c1C(=O)c1c(O)c3c(c(O)c1C2=O)C[C@@](O)(C(=O)CO)C[C@@H]3O[C@H]1C[C@H](N)[C@H](O)[C@H](C)O1 turned out to be 8.96

Origin of the recorded values: paper PMC10663723
